Data credit: patent US20060167270A1

tgt: hRUP25 (Homo sapiens, UniProt Q8TDS4)
Sequence (Q8TDS4 whole entry): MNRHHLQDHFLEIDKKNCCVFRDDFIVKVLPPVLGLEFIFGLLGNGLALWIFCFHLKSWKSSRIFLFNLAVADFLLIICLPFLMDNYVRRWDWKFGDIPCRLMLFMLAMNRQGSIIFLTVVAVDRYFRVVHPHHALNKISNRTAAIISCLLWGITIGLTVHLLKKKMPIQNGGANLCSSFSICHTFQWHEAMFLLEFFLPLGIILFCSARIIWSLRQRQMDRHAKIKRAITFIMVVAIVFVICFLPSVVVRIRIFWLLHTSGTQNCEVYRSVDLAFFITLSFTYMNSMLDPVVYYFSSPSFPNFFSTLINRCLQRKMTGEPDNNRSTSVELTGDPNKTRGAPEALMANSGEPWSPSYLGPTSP
protocol: cAMP Whole Cell assay (Flash Plate Adenylyl Cyclase kit) in CHO cells stably transfected with hRUP25
test-parameters: CHO cells stably expressing hRUP25; average of two (2) trials
experimental-readout: IC50 (nM)

{"columns": ["smiles-text", "experimental-readout", "endpoint-result"],
 "data": [
  ["CCCCc1[nH]nc(C(=O)O)c1F", "IC50", 900]
]}
